System: Fer (mouse)
Assay: phosphorylation enrichment, bacterial display (enrichment ratio); higher = better substrate or ligand; peptides without Tyr show the background
Quick rule: phosphorylation enrichment of at least 0.5 means rule met, below that means rule not met.

polymer-sequence	group
SFLSYYTSHVQ [NEFL_Y443_P440L]	rule met
MSRDVYSTDYY [NTRK2_Y702]	rule met
ATLDVYNPFET [SCAMP3_Y41]	rule met
QQLVAYFSKHT [SRC_Y232_A237T_YF]	rule met
QEGPEYWDLET [HLA-A_Y83_Q86L]	rule met
GCKKRYDKDKP [THAP1_Y14_N12K]	rule not met
GESVSYLFSHV [PRPS1_Y311]	rule not met
RPSELYYSKIS [SMG1_Y2253_G2258S]	rule met
FITVGYVDDTQ [HLA-B_Y51_S48T]	rule met
AQMAMYFWEMS [TRPM4_Y577_G582S]	rule met
LHVKMYNFLRS [ADGRG7_Y760_R756H]	rule met

---

Molecular target: FGFR3 (UniProt P22607)
Sequence (P22607 whole entry, looked up): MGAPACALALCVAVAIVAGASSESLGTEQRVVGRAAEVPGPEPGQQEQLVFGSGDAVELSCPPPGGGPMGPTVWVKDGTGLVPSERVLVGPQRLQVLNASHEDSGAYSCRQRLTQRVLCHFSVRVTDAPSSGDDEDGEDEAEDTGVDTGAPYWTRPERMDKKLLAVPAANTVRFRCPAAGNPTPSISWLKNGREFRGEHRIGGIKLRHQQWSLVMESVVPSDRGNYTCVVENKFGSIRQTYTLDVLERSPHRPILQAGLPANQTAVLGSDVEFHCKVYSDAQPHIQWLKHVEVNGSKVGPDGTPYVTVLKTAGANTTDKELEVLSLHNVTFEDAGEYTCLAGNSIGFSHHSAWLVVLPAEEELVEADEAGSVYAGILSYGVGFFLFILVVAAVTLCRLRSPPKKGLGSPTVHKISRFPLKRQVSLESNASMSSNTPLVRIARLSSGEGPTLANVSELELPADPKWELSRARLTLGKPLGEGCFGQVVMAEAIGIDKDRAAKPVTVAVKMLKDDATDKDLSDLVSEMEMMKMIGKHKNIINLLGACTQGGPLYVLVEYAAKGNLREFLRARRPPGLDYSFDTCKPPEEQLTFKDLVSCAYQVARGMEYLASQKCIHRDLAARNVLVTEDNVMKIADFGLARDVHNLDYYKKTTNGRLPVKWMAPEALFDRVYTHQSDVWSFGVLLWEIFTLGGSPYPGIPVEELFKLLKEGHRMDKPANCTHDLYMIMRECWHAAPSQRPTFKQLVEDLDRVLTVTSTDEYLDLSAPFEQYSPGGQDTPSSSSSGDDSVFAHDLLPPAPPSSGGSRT
Experiment: phosphorylation enrichment, bacterial display (enrichment ratio); higher = better substrate or ligand; peptides without Tyr show the background

polymer-sequence	phosphorylation enrichment
YRKNIYNVKST [SYNE2_Y575]	0.48
FTNRSYDLDYD [MYC_Y12_N11S]	0.745
KLQKKYGPISS [CYP17A1_Y60_Y64S]	0.493
RFLRGYRQYAY [HLA-A_Y137_D140Y]	0.669
GPIFRYDSGGA [CYP11B1_Y81_L83S]	0.554
TNYPLYLRSLE [MTM1_Y71_R69P]	0.987
KHGGNYVPAPK [OSCP1_Y237]	0.604
MGIMLYGVDSR [PKD1_Y3143_V3138M]	0.694
DTCPPYVLSQG [GJB4_Y237]	0.77
LKALKYKSMKI [ITGA11_Y1098]	0.619
WRPFGYPRCRR [BCS1L_Y181_R184C]	0.459
IRYPPYTDWNQ [ALDH3B2_Y365_H361R]	0.612
LKGIRYLTSGL [PIGA_Y82_R77L]	0.452
LTFPDYLPCSV [SAG_Y129]	3.07
ATGGFYSYGGG [KRT24_Y120]	0.659
PRAEWYRDDVL [MYOM2_Y317]	0.818
NTCNRYCRDEI [ITGB3_Y660]	0.486
YYHCTYKKRMI [CLEC12A_Y242]	3.12
DTKAFYPEEIS [HSPA1A_Y115_E110D]	0.88
AALKLYHVSDS [VIL1_Y256]	0.672
WNGDKYAATTT [TRIM39_Y439]	0.679
ICANKYMVKSC [RPL10_Y75]	0.514
GEPLSYTRFSL [TFRC_Y20]	0.545
TCRPPYYHRNC [HGD_Y333_F329C]	0.493
VERRVYAEDPY [PCCA_Y401_C398R]	0.664
TQPSPYAVYLF [RPGRIP1_Y823_R827L]	1.1
FSIAQYCCRMG [LRRK2_Y2023_G2019S_YF]	0.57

---

phosphorylation enrichment listing for selected sequences.
Target: Hck (UniProt P08631)
Sequence (P08631 whole entry, looked up): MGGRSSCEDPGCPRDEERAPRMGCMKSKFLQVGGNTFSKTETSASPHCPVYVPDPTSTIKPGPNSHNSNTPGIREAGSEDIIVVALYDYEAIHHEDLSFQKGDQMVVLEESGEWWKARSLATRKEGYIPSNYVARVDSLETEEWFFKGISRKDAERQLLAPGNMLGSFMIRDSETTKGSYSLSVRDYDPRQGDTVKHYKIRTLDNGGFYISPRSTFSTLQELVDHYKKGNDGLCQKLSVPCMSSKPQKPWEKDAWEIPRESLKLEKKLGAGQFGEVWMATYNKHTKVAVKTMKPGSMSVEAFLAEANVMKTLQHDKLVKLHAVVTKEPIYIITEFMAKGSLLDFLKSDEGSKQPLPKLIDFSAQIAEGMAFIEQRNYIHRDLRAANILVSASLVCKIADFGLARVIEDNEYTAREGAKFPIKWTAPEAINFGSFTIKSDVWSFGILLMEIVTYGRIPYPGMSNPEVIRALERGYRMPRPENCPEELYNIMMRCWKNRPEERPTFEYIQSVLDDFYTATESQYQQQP
Assay: phosphorylation enrichment, bacterial display (enrichment ratio); higher = better substrate or ligand; peptides without Tyr show the background

polymer-sequence	measured-target	phosphorylation enrichment
RRSKMYLKTRS [LPL_Y329_S325R]	Hck (UniProt P08631)	0.602
APTSGYQEFVH [IL4R_Y575]	Hck (UniProt P08631)	0.503
ISHVAYCVLGK [TRRAP_Y892_R893C]	Hck (UniProt P08631)	1.09

---

Target: FGFR1 (UniProt P11362)
Sequence (P11362 whole entry, looked up): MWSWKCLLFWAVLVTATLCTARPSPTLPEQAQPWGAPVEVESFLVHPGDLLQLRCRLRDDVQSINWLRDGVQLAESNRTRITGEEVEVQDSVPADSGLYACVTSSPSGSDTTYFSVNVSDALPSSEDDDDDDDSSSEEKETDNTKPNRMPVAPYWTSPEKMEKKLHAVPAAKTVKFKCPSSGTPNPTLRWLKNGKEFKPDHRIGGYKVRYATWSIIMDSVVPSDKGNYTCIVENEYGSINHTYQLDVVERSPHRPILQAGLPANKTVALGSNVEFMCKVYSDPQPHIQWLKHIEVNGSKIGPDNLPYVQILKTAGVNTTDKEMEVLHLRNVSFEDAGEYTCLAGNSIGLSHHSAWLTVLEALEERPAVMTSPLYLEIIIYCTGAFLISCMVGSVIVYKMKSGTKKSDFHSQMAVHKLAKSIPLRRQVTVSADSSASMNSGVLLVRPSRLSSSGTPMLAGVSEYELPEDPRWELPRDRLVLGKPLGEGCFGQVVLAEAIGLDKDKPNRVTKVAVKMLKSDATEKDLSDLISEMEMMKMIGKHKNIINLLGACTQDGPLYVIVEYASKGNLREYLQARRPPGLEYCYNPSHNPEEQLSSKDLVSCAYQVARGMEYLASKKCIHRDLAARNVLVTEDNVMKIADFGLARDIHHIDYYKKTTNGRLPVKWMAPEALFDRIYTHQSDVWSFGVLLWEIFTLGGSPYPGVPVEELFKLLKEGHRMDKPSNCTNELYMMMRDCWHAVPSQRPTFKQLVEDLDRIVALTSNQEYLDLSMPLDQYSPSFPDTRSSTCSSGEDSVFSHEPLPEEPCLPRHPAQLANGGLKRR
Test: phosphorylation enrichment, bacterial display (enrichment ratio); higher = better substrate or ligand; peptides without Tyr show the background
Quick rule: phosphorylation enrichment of at least 0.5 means YES, below that means NO.

polymer-sequence	group
KEDSAYGSQSV [NFKB2_Y868]	NO
GQRDLYSGLNQ [CD3E_Y199]	NO
LVPPRYVRSEI [PKP2_Y194_A195V]	NO
LVMFIYAIFGM [SCN1A_Y1684]	YES
YRIGPYQPNVP [MATR3_Y784]	YES
DFFDLYGGEKL [PTPN11_Y66_F71L_YF]	YES
ADNQRYAFMPL [TMEM87B_Y460_N456D]	YES
TNEFEYDELIV [TGM1_Y136_D132N_YF]	YES
FKIFRYTLNDN [FN1_Y1975_L1974R_YF]	YES
KIVYVYVKKRS [DNAI2_Y7_E2K]	YES
ARKCKYFKKHE [NFIX_Y40_R38C]	NO
KLQKKYGPISS [CYP17A1_Y60_Y64S]	NO
GSRGKYSSGFH [ATM_Y332_R337H]	NO
AQINLYQDVML [ZNF806_Y33]	YES
RTLIRYAKLGN [BEST1_Y131_N133K]	YES
TSNNPYFRDQA [RPGRIP1_Y846_A841T]	NO
AVRVFYRKCPH [EPHB2_Y194_R199H]	YES

---

Molecular target: FGFR3 (UniProt P22607)
Experiment: phosphorylation enrichment, bacterial display (enrichment ratio); higher = better substrate or ligand; peptides without Tyr show the background
phosphorylation enrichment listing for selected sequences.
value-type: phosphorylation enrichment

polymer-sequence	data-value
HSFQCYGQNEA [ENTPD3_Y262_R264Q]	0.71
HLITAYRAHGF [PDHA1_Y118]	0.609
KDIENHIQDGK [RAD50_Y964_Y964H]	0.445
PEPHIYAVADV [MYO9A_Y216_L211P]	1.01
DRLASYLDKVP [KRT14_Y129_R134P]	0.689
QNVADYMRYLM [RPL5_Y207]	0.893
FLEEEYVKAVG [TF_Y674_G671E_YF]	0.721
RCFVFYFSFLL [PTEN_Y177_R173C_YF]	0.613
SVTCTYSPALK [TP53_Y126_N131K]	0.602

---

System: c-Src
Test: phosphorylation enrichment, bacterial display (enrichment ratio); higher = better substrate or ligand; peptides without Tyr show the background

polymer-sequence	phosphorylation enrichment
SIKDKYVTVLY [KCNH2_Y611_A614V]	0.403
YTGSTYRVGDT [FN1_Y106_N104S]	0.48
SVVVPYEPPEG [TP53_Y220_V225G]	0.446
RRQDLYSARDL [SART1_Y249]	1.21
DTKAFYPEEIS [HSPA1A_Y115_E110D]	0.523
WNEVGYDDIGG [VCP_Y203_L198W]	0.502
GTTIHYNYMCN [TP53_Y234_C229G]	0.529
IENPQYFSDAC [NTRK1_Y496]	0.542
SGPRRYNIAAL [TTR_Y125_T126N]	0.409
FIAVGYVDDTQ [HLA-A_Y51]	0.49
IGMSSYVMLAS [GGCX_Y301_F299S]	0.546
GFKVRYATWSI [FGFR1_Y210_YF]	0.392
QSAGQYSSQGL [TNNI3K_Y788]	0.418
AVNDFYAAKKT [CCDC178_Y422]	0.429
SILAVYSKDNF [PANK2_Y400_YF]	1.94
IHETTYNSIMK [ACTA1_Y281]	1.04
LAVVDYIRRQK [ATM_Y1915_M1916I]	1.21
AQINLYQDVML [ZNF806_Y33]	1.05
DGLASYLDKVR [KRT12_Y139_R135G]	0.414
SQINLYQDVML [ZNF806_Y33_A28S]	0.934
HLITAYRAHGF [PDHA1_Y118]	0.344

---

System: AncSZ
Assay: phosphorylation enrichment, bacterial display (enrichment ratio); higher = better substrate or ligand; peptides without Tyr show the background

polymer-sequence	phosphorylation enrichment
GFKVRYATWSI [FGFR1_Y210_YF]	1.11
RRERDYTNLPS [CSF1R_Y923]	2.88
KSRQIYDAYIM [GRK3_Y109_R104K]	0.797
HDRNTYEKYLE [TF_Y666_G671E]	1.07
PTEAQYRFIYM [PTPN11_Y511_Q506P]	2.44
PLDGEYSTLQI [TP53_Y327_F328S]	2.13
KRLFAYKMLMA [TMC2_Y209_Q205R_YF]	0.767
HLATEYVFSDF [PANX1_Y10_Q5H]	2.12
CYCSWYRGWAP [TIMP3_Y195_G190C]	1.03
PLGVLYKVKVF [PTS_Y128_V124L_YF]	1.54

---

SH2 binding enrichment listing for selected sequences.
Target: Grb2 SH2 (UniProt P62993)
Sequence (P62993 whole entry, looked up): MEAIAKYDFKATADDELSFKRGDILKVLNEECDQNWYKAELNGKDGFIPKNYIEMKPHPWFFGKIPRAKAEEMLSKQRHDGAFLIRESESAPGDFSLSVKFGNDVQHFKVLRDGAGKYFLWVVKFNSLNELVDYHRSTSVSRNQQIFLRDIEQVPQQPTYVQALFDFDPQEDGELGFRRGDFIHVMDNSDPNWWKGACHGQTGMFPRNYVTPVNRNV
Assay: SH2 binding enrichment of the phosphorylated peptide, bacterial display (enrichment ratio); higher = better substrate or ligand; peptides without Tyr show the background

polymer-sequence	measured-target	SH2 binding enrichment
TGEKLYQHKEF [ZNF283_Y627_R629H]	Grb2 SH2 (UniProt P62993)	0.818
QEGPEYWDLET [HLA-A_Y83_Q86L]	Grb2 SH2 (UniProt P62993)	0.775
EHFSYYGMKAV [SLC15A2_Y61_R57H]	Grb2 SH2 (UniProt P62993)	0.923
KTSGNYLPVTG [WDR19_Y28_A30P]	Grb2 SH2 (UniProt P62993)	0.758
RLLVLYPWTQR [HBB_Y36_V35L]	Grb2 SH2 (UniProt P62993)	1.77
NTTIHYNYMCN [TP53_Y234_C229N]	Grb2 SH2 (UniProt P62993)	0.931
MKTISYETLIA [DOCK10_Y1350]	Grb2 SH2 (UniProt P62993)	0.747
TKEPKYGGAGS [KIAA1210_Y1615_E1616G]	Grb2 SH2 (UniProt P62993)	1.08
QSLEPYTKQQL [STAT3_Y640_V637L]	Grb2 SH2 (UniProt P62993)	0.679
QRMGTYGVRAA [ICAM2_Y260]	Grb2 SH2 (UniProt P62993)	1
REIIAYQPFGK [PRKCG_Y529_P524R_YF]	Grb2 SH2 (UniProt P62993)	1.19
LEAVSYSSRFA [RNLS_Y190_YF]	Grb2 SH2 (UniProt P62993)	0.777
GLGGGYGGASG [KRT8_Y54]	Grb2 SH2 (UniProt P62993)	0.692
TYGNLYGSRKQ [YIPF7_Y59_A54T]	Grb2 SH2 (UniProt P62993)	0.94
RSFSPCDFQPC [TNS1_Y796_Y796C_YF]	Grb2 SH2 (UniProt P62993)	0.945
SKLTIYDGRPS [MTM1_Y277_A279G]	Grb2 SH2 (UniProt P62993)	0.94
DENWFYTQAAS [RPS19_Y54_R56Q]	Grb2 SH2 (UniProt P62993)	0.906
ERQIRYLNHQL [CEP152_Y268]	Grb2 SH2 (UniProt P62993)	0.842
RGYRVCYTPDS [PTPRF_Y450_Y450C]	Grb2 SH2 (UniProt P62993)	0.534
CTTNHYNFMCN [TP53_Y234_I232N_YF]	Grb2 SH2 (UniProt P62993)	0.962
TQRPYYKGGGG [TYROBP_Y112]	Grb2 SH2 (UniProt P62993)	1.08
DGTESYLTVSS [PLK1_Y462]	Grb2 SH2 (UniProt P62993)	0.628
HKETGYVVERP [BCLAF1_Y466_L461H]	Grb2 SH2 (UniProt P62993)	0.747
